Molecular target: T1, human prolactin receptor (PRLR) (human, UniProt P16471 25-622)
T1 sequence: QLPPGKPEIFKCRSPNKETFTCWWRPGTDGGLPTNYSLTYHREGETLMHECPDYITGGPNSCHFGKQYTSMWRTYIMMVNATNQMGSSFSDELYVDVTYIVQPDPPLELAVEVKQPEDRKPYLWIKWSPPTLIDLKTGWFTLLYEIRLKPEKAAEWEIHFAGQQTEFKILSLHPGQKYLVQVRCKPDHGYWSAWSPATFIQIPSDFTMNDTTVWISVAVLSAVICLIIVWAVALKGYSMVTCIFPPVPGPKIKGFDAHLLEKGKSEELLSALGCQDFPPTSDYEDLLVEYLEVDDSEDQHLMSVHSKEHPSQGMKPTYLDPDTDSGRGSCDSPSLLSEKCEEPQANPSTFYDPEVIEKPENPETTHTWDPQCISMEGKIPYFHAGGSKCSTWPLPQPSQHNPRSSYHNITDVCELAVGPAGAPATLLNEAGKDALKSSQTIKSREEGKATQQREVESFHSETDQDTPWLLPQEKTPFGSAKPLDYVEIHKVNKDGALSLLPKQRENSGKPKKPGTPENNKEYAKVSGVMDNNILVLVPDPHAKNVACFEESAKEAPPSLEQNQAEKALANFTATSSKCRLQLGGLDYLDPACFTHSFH
Test: cell-based or functional assay
The following binders are listed with their measured IC50, cell viability, PC3/PRLR cells values.
Write down the numeric answer in nM and omit the unit.

binder="H1H6765P-DM1 (antibody, human IgG1, V domains shown, DM1 conjugated through SMCC linker; attachment residues not stated) VH: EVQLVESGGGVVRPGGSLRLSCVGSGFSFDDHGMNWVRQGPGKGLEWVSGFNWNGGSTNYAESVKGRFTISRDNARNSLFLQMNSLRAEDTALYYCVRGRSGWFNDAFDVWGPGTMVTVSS VL: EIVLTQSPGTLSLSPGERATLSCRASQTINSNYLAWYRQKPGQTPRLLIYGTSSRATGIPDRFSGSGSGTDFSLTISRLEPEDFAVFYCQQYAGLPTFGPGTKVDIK" readout_units=nM experimental_value=0.57
binder="H1H6800P-DM1 (antibody, human IgG1, V domains shown, DM1 conjugated through SMCC linker; attachment residues not stated) VH: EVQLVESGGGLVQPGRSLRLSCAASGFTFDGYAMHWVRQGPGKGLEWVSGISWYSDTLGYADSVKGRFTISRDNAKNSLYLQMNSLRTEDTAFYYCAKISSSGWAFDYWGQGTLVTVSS VL: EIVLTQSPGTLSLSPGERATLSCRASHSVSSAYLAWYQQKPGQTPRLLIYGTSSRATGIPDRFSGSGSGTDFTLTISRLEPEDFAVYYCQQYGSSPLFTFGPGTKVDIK" readout_units=nM experimental_value=1.37
binder="H1H6959N2-DM1 (antibody, human IgG1, V domains shown, DM1 conjugated through SMCC linker; attachment residues not stated) VH: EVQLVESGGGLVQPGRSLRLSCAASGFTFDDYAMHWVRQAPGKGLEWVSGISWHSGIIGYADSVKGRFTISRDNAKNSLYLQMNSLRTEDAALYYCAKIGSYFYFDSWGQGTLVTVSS VL: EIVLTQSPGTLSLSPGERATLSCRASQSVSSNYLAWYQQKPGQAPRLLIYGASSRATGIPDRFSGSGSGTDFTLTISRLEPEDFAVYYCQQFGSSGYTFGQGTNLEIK" readout_units=nM experimental_value=11.6
binder="H1H6793P-DM1 (antibody, human IgG1, V domains shown, DM1 conjugated through SMCC linker; attachment residues not stated) VH: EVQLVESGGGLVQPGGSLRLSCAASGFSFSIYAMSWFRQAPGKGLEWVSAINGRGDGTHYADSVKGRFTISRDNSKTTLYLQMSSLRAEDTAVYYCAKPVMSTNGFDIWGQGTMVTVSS VL: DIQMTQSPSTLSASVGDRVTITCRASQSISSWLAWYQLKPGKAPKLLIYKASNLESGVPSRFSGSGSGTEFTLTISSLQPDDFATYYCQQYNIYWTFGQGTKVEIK" readout_units=nM experimental_value=3.65

Record H1H6960N-DM1 (antibody, human IgG1, V domains shown, DM1 conjugated through SMCC linker; attachment residues not stated) VH: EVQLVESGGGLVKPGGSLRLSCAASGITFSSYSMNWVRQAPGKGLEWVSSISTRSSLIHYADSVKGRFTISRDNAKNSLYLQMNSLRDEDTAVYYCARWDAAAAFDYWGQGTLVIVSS VL: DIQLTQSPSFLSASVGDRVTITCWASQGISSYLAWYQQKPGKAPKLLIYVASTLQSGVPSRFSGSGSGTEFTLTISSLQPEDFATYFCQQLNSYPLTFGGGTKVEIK , field IC50, cell viability, PC3/PRLR cells: 1.13

Data point: H1H6803P-DM1 (antibody, human IgG1, V domains shown, DM1 conjugated through SMCC linker; attachment residues not stated) VH: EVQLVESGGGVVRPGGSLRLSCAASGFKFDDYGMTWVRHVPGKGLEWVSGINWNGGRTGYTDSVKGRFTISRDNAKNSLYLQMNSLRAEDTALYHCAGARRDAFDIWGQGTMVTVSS VL: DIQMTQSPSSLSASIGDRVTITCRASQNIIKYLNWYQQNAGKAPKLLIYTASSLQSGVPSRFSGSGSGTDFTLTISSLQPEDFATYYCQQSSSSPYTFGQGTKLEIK ; IC50, cell viability, PC3/PRLR cells = 2.32
